# Study target: SMARCA4 (Homo sapiens, UniProt P51532)
# Construct: SMARCA2/SMARCA4 protein degradation selectivity in MV4-11 cells; endogenous in cells; host or cells: MV4-11
# Sequence (P51532 whole entry): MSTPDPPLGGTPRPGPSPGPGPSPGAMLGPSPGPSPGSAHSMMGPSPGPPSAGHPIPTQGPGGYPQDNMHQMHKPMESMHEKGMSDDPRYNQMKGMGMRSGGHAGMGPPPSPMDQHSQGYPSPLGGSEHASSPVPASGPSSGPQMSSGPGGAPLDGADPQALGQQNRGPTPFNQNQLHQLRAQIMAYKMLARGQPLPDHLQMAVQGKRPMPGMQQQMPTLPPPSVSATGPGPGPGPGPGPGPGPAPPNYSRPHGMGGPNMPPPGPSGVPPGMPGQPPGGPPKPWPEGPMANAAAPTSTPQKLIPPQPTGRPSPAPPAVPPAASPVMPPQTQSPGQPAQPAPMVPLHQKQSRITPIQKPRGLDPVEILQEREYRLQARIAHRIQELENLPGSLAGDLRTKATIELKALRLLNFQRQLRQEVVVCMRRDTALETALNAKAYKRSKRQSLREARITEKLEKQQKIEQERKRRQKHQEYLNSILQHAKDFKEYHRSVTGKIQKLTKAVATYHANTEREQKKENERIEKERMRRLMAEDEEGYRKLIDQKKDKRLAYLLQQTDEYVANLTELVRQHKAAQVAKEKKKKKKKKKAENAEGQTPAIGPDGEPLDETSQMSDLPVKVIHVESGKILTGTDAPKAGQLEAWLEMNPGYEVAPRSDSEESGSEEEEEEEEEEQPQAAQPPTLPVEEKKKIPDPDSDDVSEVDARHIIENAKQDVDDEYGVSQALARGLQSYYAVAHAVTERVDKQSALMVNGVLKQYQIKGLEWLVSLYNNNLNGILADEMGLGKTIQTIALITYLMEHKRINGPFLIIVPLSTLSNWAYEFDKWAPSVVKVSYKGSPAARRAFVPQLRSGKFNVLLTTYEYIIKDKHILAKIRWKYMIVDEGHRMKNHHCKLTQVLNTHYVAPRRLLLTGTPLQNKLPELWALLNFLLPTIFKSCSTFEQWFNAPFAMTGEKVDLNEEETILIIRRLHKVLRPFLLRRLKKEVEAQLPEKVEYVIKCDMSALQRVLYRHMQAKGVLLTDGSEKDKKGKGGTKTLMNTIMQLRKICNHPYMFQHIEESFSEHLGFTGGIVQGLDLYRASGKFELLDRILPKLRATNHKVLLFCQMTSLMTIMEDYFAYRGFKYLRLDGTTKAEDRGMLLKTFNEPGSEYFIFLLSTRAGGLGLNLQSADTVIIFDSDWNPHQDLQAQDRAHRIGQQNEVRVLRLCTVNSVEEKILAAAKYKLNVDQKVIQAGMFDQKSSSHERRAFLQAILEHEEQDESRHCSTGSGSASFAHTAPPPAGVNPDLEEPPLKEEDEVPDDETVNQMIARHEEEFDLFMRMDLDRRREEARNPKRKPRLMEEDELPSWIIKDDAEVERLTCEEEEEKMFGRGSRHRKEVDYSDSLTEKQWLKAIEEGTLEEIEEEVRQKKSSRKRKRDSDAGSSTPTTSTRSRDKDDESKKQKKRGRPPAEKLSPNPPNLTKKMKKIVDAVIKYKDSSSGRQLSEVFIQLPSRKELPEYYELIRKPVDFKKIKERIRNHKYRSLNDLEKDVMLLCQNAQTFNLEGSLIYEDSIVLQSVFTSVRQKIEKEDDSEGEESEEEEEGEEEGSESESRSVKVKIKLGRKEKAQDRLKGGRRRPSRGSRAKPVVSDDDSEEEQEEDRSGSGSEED
# Method notes: SMARCA4 Western blot degradation in MV4-11 cells
# Assay type: cell-based
# Measurement setup: MV4-11 cells, 24 h; read-out: SMARCA4 MSD MV411 degradation 24 h: Mean external-Abs DC50
Listed below: DC50 values for each entry.

- Compound: "C#Cc1ccc(CNC(=O)[C@@H]2C[C@@H](O)CN2C(=O)[C@@H](NC(=O)[C@H]2CCC3(CC2)C[C@H](N2CCC(c4cnc(N5CCN6c7cc(-c8ccccc8O)nnc7NC[C@H]6C5)nc4)CC2)C3)C(C)(C)CCO)cc1 (single isomer, unassigned) [I-131]"
  DC50: "0.01 to 0.1 µM"
- Compound: "C#Cc1ccc([C@H](C)NC(=O)[C@@H]2C[C@@H](O)CN2C(=O)[C@@H](c2cc(OCCN3CCN4c5cc(-c6ccccc6O)nnc5NC[C@H]4C3)no2)C(C)C)cc1 (single isomer, unassigned) [I-273]"
  DC50: "> 0.1 µM"
- Compound: "C#Cc1ccc([C@@H](C)NC(=O)[C@@H]2C[C@@H](O)CN2C(=O)C(c2cc(N3CCC(CN4CCC(N5CCC(N6CCN7c8cc(-c9ccccc9O)nnc8NC[C@H]7C6)CC5)CC4)CC3)no2)C(C)C)c(Cl)c1 (some centres unmarked) [I-327]"
  DC50: "> 0.1 µM"
- Compound: "C#Cc1ccc([C@H](C)NC(=O)[C@@H]2C[C@@H](O)CN2C(=O)[C@@H](NC(=O)[C@H]2CC3(C2)C[C@H](c2cnc(N4CCC(N5CCN6c7cc(-c8ccccc8O)nnc7NC[C@H]6C5)CC4)nc2)C3)C(C)(C)C)cc1 (some centres unmarked) [I-363]"
  DC50: "> 0.1 µM"
- Compound: "Cc1ncsc1-c1ccc(CNC(=O)[C@@H]2C[C@@H](O)CN2C(=O)[C@H](c2cc(N3CC4(CC(N5CCC(c6cnc(N7CCN8c9cc(-c%10ccccc%10O)nnc9NC[C@H]8C7)nc6)CC5)C4)C3)no2)C(C)C)cc1 (single isomer, unassigned) [I-54]"
  DC50: "0.01 to 0.1 µM"

**Query** What value of DC50 has been reported for the following compound? C#Cc1cc(O)c(CNC(=O)[C@@H]2C[C@@H](O)CN2C(=O)[C@@H](NC(=O)N2CC3(CC(N4CCC(c5cnc(N6CCc7[nH]c8nnc(-c9ccccc9O)cc8c7[C@H]6C)nc5)CC4)C3)C2)C(C)(C)C)c(Cl)c1 [I-281]
**Result** > 0.1 µM

**Query** Any idea what its DC50 is? The compound is C#Cc1ccc(CNC(=O)[C@@H]2C[C@@H](O)CN2C(=O)[C@@H](NC(=O)[C@H]2CCC3(CC2)C[C@H](N2CCC(N(C)CCN4CCN5c6cc(-c7ccccc7O)nnc6NC[C@H]5C4)CC2)C3)C(C)(C)C)cc1 (single isomer, unassigned) [I-246]
**Result** > 0.1 µM

**Query** I have this compound here, C#Cc1ccc(CNC(=O)[C@@H]2C[C@@H](O)CN2C(=O)[C@@H](NC(=O)N2CCC[C@@H](CN3CCC(N4CCC(N5CCN6c7cc(-c8ccccc8O)nnc7NC[C@H]6C5)CC4)CC3)C2)C(C)(C)C)cc1 (single isomer, unassigned) [I-253] , and I need its recorded DC50.
**Result** > 0.1 µM

====

// Dmax lookup, one value per entry
# Study target: SMARCA4 (Homo sapiens, UniProt P51532)
# Construct: SMARCA2/SMARCA4 protein degradation selectivity in MV4-11 cells; endogenous in cells; host or cells: MV4-11
# Method notes: SMARCA4 Western blot degradation in MV4-11 cells
# Format: cell-based
# Measurement setup: MV4-11, MV4-11 cells, 24 h; read-out: SMARCA4 MSD MV411 degradation 24 h: average Dmax %

- Compound: "C#Cc1ccc(CNC(=O)[C@@H]2C[C@@H](O)CN2C(=O)[C@@H](NC(=O)N2CC3(CC(N4CCC(c5cnc(N6CCc7[nH]c8nnc(-c9ccccc9O)cc8c7[C@H]6C)nc5)CC4)C3)C2)C(C)(C)CCN2CCOCC2)cc1 (single isomer, unassigned)"
  Dmax: "< 50%"
- Compound: "C#Cc1ccc(CNC(=O)[C@@H]2C[C@@H](O)CN2C(=O)[C@H](NC(=O)N2CC3(CC(N4CCC(c5cnc(N6CCc7[nH]c8nnc(-c9ccccc9O)cc8c7[C@H]6C)nc5)CC4)C3)C2)C(C)(C)CCN2CCNCC2)cc1"
  Dmax: "< 50%"
- Compound: "Cc1ncsc1-c1ccc(CNC(=O)[C@@H]2C[C@@H](O)CN2C(=O)[C@@H](NC(=O)N2CCC3(CCC(N4CCC(c5cnc(N6CCN7c8cc(-c9ccccc9O)nnc8NC[C@H]7C6)nc5)CC4)CC3)CC2)C(C)(C)C)cc1"
  Dmax: "< 50%"
- Compound: "C#Cc1ccc(CNC(=O)[C@@H]2C[C@@H](O)CN2C(=O)[C@@H](NC(=O)[C@H]2CCC3(CC2)C[C@H](N2CCC(N4CCC(N5CCN6c7cc(-c8ccccc8O)nnc7NC[C@H]6C5)CC4)CC2)C3)C(C)(C)C)c(F)c1 (stereo partly shown)"
  Dmax: "< 50%"
- Compound: "Cn1nccc1-c1ccc(CNC(=O)[C@@H]2C[C@@H](O)CN2C(=O)[C@@H](NC(=O)[C@H]2CC[C@H](c3ccc(-c4cnc(N5CCN6c7cc(-c8ccccc8O)nnc7NC[C@H]6C5)nc4)cc3)CC2)C(C)(C)C)cc1 (single isomer, unassigned)"
  Dmax: "> 90%"
- Compound: "C#Cc1ccc(CNC(=O)[C@@H]2C[C@@H](O)CN2C(=O)[C@@H](NC(=O)N2CC3(CN(CC4CCN(c5cnc(N6CCc7[nH]c8nnc(-c9ccccc9O)cc8c7[C@H]6C)nc5)CC4)C3)C2)C(C)(C)C)cc1"
  Dmax: "< 50%"
- Compound: "C#Cc1ccc(CNC(=O)[C@@H]2C[C@@H](O)CN2C(=O)[C@@H](NC(=O)[C@H]2CC[C@@H](CN3CCC(c4cnc(N5CCN6c7cc(-c8ccccc8O)nnc7NC[C@H]6C5)nc4)CC3)CC2)C(C)(C)C)cc1"
  Dmax: "50 to 70%"
- Compound: "Cc1ncsc1-c1ccc(CNC(=O)[C@@H]2C[C@@H](O)CN2C(=O)[C@@H](c2cc(N3CC4(CC(N5CCC(c6cnc(N7CCN8c9cc(-c%10ccccc%10O)nnc9NC[C@H]8C7)nc6)CC5)C4)C3)no2)C(C)C)cc1 (single isomer, unassigned)"
  Dmax: "> 90%"

**Query** Would you kindly share the measured Dmax for `Cc1ncsc1-c1ccc(CNC(=O)[C@@H]2C[C@@H](O)CN2C(=O)[C@@H](NC(=O)[C@H]2CC[C@H](c3ccc(-c4cnc(N5CCN6c7cc(-c8ccccc8O)nnc7NC[C@H]6C5)nc4)cc3)CC2)C(C)(C)C)cc1` ?
**Result** < 50%

====

Form field: Dmax (one value per entry).
# Study target: SMARCA2 (Homo sapiens, UniProt P51531)
# Sequence (P51531 whole entry): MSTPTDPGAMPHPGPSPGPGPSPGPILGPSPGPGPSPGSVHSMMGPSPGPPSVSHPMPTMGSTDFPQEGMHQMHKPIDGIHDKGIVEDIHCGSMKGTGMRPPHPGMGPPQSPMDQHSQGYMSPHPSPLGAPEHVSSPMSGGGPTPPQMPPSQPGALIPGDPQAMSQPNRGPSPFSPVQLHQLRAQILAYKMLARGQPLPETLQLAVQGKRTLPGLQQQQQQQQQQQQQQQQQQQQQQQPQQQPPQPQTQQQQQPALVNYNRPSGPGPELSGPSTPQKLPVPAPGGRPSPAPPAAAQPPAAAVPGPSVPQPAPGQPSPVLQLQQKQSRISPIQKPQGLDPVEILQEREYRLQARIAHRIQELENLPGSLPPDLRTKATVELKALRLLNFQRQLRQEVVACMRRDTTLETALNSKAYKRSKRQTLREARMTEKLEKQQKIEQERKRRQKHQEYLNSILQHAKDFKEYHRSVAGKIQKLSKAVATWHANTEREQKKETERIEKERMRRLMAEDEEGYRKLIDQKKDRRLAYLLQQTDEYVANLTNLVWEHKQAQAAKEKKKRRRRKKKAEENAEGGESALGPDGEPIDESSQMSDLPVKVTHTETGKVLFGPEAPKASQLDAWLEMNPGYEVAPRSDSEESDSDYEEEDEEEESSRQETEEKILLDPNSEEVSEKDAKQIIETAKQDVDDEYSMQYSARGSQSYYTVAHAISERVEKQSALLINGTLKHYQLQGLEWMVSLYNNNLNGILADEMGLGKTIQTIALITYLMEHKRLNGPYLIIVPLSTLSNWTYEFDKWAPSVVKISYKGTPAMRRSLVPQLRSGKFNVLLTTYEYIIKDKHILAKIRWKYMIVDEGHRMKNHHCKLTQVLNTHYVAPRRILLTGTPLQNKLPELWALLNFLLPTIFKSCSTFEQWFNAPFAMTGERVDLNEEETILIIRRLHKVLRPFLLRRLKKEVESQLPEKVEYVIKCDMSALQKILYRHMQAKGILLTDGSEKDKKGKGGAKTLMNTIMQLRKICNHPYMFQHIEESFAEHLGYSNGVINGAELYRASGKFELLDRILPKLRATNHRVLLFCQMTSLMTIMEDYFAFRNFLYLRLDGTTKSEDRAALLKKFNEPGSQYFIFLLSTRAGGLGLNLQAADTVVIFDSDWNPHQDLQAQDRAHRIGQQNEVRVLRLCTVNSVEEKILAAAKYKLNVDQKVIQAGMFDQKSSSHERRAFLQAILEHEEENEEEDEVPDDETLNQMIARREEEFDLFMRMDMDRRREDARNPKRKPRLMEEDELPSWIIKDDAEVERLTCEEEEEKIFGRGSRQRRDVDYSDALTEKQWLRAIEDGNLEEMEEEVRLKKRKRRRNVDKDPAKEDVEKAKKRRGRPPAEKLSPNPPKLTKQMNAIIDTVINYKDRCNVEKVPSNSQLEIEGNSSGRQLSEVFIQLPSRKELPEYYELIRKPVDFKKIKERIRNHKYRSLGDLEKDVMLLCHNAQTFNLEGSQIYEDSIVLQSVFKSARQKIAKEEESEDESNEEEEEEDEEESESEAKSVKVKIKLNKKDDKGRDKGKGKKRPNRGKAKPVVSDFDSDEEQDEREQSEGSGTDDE
# Method notes: SMARCA2 Western blot degradation in MV4-11 cells
# Assay type: cell-based
# Set-up: SMARCA2/SMARCA4 protein degradation selectivity in MV4-11 cells; endogenous in cells; host or cells: MV4-11
# Measurement setup: MV4-11, MV4-11 cells, 24 h; read-out: SMARCA2 MSD MV411 degradation 24 h: average Dmax %

- Compound: "Cc1ncsc1-c1ccc(CNC(=O)[C@@H]2C[C@@H](O)CN2C(=O)[C@@H](NC(=O)[C@H]2CCC3(CC2)C[C@H](N2CCC(c4ccc(N5CCN6c7cc(-c8ccccc8O)nnc7NC[C@H]6C5)nc4)CC2)C3)C(C)(C)C)cc1 (stereo partly drawn) [I-148]"
  Result: "70 to 90%"
- Compound: "C#Cc1ccc(CNC(=O)[C@@H]2C[C@@H](O)CN2C(=O)[C@@H](NC(=O)N2CCC(N3CC4(CC(N5CCC(N6CCc7[nH]c8nnc(-c9ccccc9O)cc8c7[C@H]6C)CC5)C4)C3)CC2)C(C)(C)C)cc1 [I-206]"
  Result: "< 50%"
- Compound: "C#Cc1ccc(CNC(=O)[C@@H]2C[C@@H](O)CN2C(=O)[C@@H](NC(=O)[C@H]2CC3(C2)C[C@H](N2CCC(N4CCC(N5CCN6c7cc(-c8ccccc8O)nnc7NC[C@H]6C5)CC4)CC2)C3)C(C)(C)C)c(O)c1 (single isomer, unassigned) [I-241]"
  Result: "> 90%"
- Compound: "C#Cc1ccc(CNC(=O)[C@@H]2C[C@@H](O)CN2C(=O)[C@@H](NC(=O)N2CC3(CC(N4CCC(c5cnc(N6CCc7[nH]c8nnc(-c9ccccc9O)cc8c7[C@H]6C)s5)CC4)C3)C2)C(C)(C)C)cc1 [I-323]"
  Result: "70 to 90%"
- Compound: "C#Cc1ccc(CNC(=O)[C@@H]2C[C@@H](O)CN2C(=O)[C@@H](NC(=O)N2CC3(CC(N4CCC(c5cnc(N6CCc7[nH]c8nnc(-c9ccccc9O)cc8c7[C@H]6C)nc5)CC4)C3)C2)C(C)(C)C)c(OCCO)c1 [I-143]"
  Result: "> 90%"
- Compound: "C#CCOc1cc(C(C(=O)N2C[C@H](O)C[C@H]2C(=O)NCc2ccc(-c3scnc3C)cc2O[C@H]2CC[C@@H](N3CCC(c4cnc(N5CCc6[nH]c7nnc(-c8ccccc8O)cc7c6[C@H]5C)nc4)CC3)CC2)C(C)C)on1 (single isomer, unassigned) [I-37]"
  Result: "> 90%"

**Query** Item under review: C#Cc1ccc(CNC(=O)[C@@H]2C[C@@H](O)CN2C(=O)[C@@H](NC(=O)N2CC3(CC(N4CCC(c5cnc(N6CCc7[nH]c8nnc(-c9ccccc9O)cc8c7[C@H]6C)nc5)CC4)C3)C2)C(C)(C)C)c(OC)c1 [I-119] . Reported Dmax?
**Result** > 90%

**Query** Please report the recorded Dmax for C#Cc1ccc(CNC(=O)[C@@H]2C[C@@H](O)CN2C(=O)[C@@H](NC(=O)C2CCN(CC3CCC(N4CCC(N5CCc6[nH]c7nnc(-c8ccccc8O)cc7c6[C@H]5C)CC4)CC3)CC2)C(C)(C)C)cc1 (stereo partly drawn) [I-197] .
**Result** < 50%

**Query** Looking for the measured Dmax of C#Cc1ccc(CNC(=O)[C@@H]2C[C@@H](O)CN2C(=O)[C@@H](NC(=O)N2CC3(CC(N4CCC(c5cnc(N6CCc7[nH]c8nnc(-c9ccccc9O)cc8c7[C@@H]6C)nc5)CC4)C3)C2)C(C)(C)C)c(OCCCOC)c1 [I-227] , can you help?
**Result** 70 to 90%

Values compiled from patent US20250170248A1.
